Listed below: Activity values for each entry.
- System: SW480
- assay_name: Decrease in cell number against human colon carcinoma SW480 cell line at 100 mM
- Format: functional
- Design: scale not given: the % may be the effect or the level left
readout_type: Activity

1. CCCCOC(=O)C1(C)CCC=[N+]1[O-] (stereo not given)
>90%
2. CC(C)OC(=O)C1(C)CCC=[N+]1[O-] (stereo not given)
<60%
3. CC(C)(C)OC(=O)C1(C)CCC=[N+]1[O-] (stereo not given)
>90%
4. CCC(C)OC(=O)C1(C)CCC=[N+]1[O-] (stereo not given)
>90%
5. CCCOC(=O)C1(C)CCC=[N+]1[O-] (stereo not given)
<60%

The reported measurements were obtained from ChEMBL document CHEMBL1149405.
